B1: STEAP1 (parent)
chain: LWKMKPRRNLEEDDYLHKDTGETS

Variants of: B1
Test: protein stability index of a GFP-peptide fusion (GPS, HEK-293T) (PSI 1-6); higher = more stable;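 also: lentivirally expressed fusions sorted by FACS into six bins by GFP to DsRed ratio, PSI derived from sequencing read proportions per bin multiplied by bin number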
Details: c terminus: a fixed tail appended
Below: a set of entries, each annotated with reported protein stability index.
Please state the value as a number alone, without comment.

Mutation spec: H17E
protein stability index: 4.35

Which protein stability index is listed for `L1S` ?
4.78

Would you mind telling me what protein stability index value was observed for `D19E` ?
4.41

Which measured protein stability index value corresponds to `K18I` ?
3.58

Which protein stability index is reported for this variant? `K5Y`
3.9

Fill in the blank: the reported protein stability index of `S24A` is ____.
4.61

Param item = `Y15A` ; retrieve measured protein stability index.
5.02
